experiment: clinical; settings: human, in vivo, AUC0–∞, geometric mean
measureName: AUC(0-inf) (ng·h/mL)
Only the number, expressed in ng·h/mL, is required.

Could you share which AUC(0-inf) value was measured for CO[C@H]1C[C@@H]2CC[C@@H](C)[C@@](O)(O2)C(=O)C(=O)N2CCCC[C@H]2C(=O)O[C@H]([C@H](C)C[C@@H]2CC[C@@H](OC(=O)C(C)(CO)CO)[C@H](OC)C2)CC(=O)[C@H](C)/C=C(\C)[C@@H](O)[C@@H](OC)C(=O)[C@H](C)C[C@H](C)/C=C/C=C/C=C/1C [temsirolimus] ?
1340

* * *

test: clinical; conditions: human, in vivo, Cmax, geometric mean
measureName: Cmax

Could you share which Cmax value was measured for CO[C@H]1C[C@@H]2CC[C@@H](C)[C@@](O)(O2)C(=O)C(=O)N2CCCC[C@H]2C(=O)O[C@H]([C@H](C)C[C@@H]2CC[C@@H](OC(=O)C(C)(CO)CO)[C@H](OC)C2)CC(=O)[C@H](C)/C=C(\C)[C@@H](O)[C@@H](OC)C(=O)[C@H](C)C[C@H](C)/C=C/C=C/C=C/1C ?
363 ng/mL
